System: UACC-257 melanoma
Assay: NCI-60 one-dose screen, 48 h
Conditions: 10 µM unless noted
Compounds without any hit were thinned out: in the full panel of roughly 83,000, 20% have a hit. Activity calls are given as the source filed them. How the source made its calls: active means growth percent below 10; inactive means the rest.
Select the matching outcome among YES = active, NO = inactive

Recorded results for 8 compounds are shown here.
compound: CC1CC=CCC12C(=O)NC(=S)NC2=O (stereo not drawn)
assigned.label: NO
--
compound: CCC[CH2][Sn]1([CH2]CCC)[O]C(=O)c2cccc([N+](=O)[O-])c2C(=O)[O]1
assigned.label: YES
--
compound: ClCCN(CCCl)c1nc(Cl)c(C2CC(c3ccccc3)=NN2c2ccccc2)s1 (stereo not drawn)
assigned.label: NO
--
compound: C[C@]12CC[C@@H]3C4=C(CC[C@H]3[C@@H]1CC[C@@H]2O)CC(=O)CC4
assigned.label: NO
--
compound: CCOC(=O)Nc1cc(Cl)c([N+](=O)[O-])c(NC(=O)OCC)n1
assigned.label: NO
--
compound: CC1(C)CC(=O)CC(C)(C)N1N=O
assigned.label: NO
--
compound: CC(=O)N1N=C(c2ccccc2)CC1c1sc(N(CCCl)CCCl)nc1Cl (stereo not drawn)
assigned.label: NO
--
compound: CC(=O)O[C@@H]1C2=C(C)C3(CC3)[C@@](C)(O)C(=O)C2=C[C@@]1(C)CO
assigned.label: YES

Query: Entry CSc1ccccc1NP1(=O)OCC(C)([N+](=O)[O-])CO1 (stereo not drawn) : call = ?
Reply: NO

Query: Given `COC(=O)C[Se]C(=O)c1ccccc1OC(C)=O` , state the outcome it received in this test.
Reply: NO

Query: For `CC1(C)N=C(N)N=C(N)N1c1ccc(CCCCc2ccc(S(=O)(=O)F)cc2)cc1` , which call appears in the assay record?
Reply: NO

Query: Which outcome did this test record for the compound `O=C1NC(=O)C(=Cc2cn(Cc3ccccc3)c3ccccc23)C(=O)N1` ?
Reply: NO

Query: Outcome? `CCC[CH2][Sn]([CH2]CCC)([CH2]CCC)[O]C(=O)CC`
Reply: YES

The reported numbers originate from PubChem BioAssay (NCI).
